Where do these numbers come from? They come from paper PMC12683216.

- measurement notes: Soluble peptide degradation, Cells condition (LC-MS)
- Type: in vitro ADME, human
- condition description: human, hMSCs in culture with fresh media (Cells condition); Figure 3B heatmap; split-and-pool libraries KLVADX1X2ASAE (19 or 38 peptides per library) in media on hMSCs; 24 h; LC-MS, ratio to βFβA6; N = 2; read-out: Fraction of peptide remaining after 24 hours: hMSC Cells
Where a SMILES comes first, the peptide text is derived from it. [ ]: non-standard residue; d: D form. βAla = NCCC(=O)O
# remaining at 24 h annotations
Give the value, in units of %, as a plain number.

Query string: Param item = CC(=O)NCCC(=O)N[C@@H](CCCCN)C(=O)N[C@@H](CC(C)C)C(=O)N[C@H](C(=O)N[C@@H](C)C(=O)N[C@@H](CC(=O)O)C(=O)NCC(=O)N[C@@H](Cc1ccc(O)cc1)C(=O)N[C@@H](C)C(=O)N[C@@H](CO)C(=O)N[C@@H](C)C(=O)N[C@@H](CCC(=O)O)C(=O)NCCC(N)=O)C(C)C [Gly-Tyr] (Ac-[βAla]KLVADGYASAE[βAla]-NH2) ; retrieve measured remaining at 24 h.
Result string: 48

###

- measurement notes: Soluble peptide degradation, Media condition (cell-conditioned media, LC-MS)
- Type: in vitro ADME, human
- condition description: human, hUVEC-conditioned media without cells (Media condition); Figure 3C; individually synthesized soluble peptide, 50 µM, hUVEC-conditioned media without cells; 24 h; LC-MS, ratio to βFβA6; N = 6; read-out: Fraction of peptide remaining after 24 hours: hUVEC Media
Where a SMILES comes first, the peptide text is derived from it. [ ]: non-standard residue; d: D form. βAla = NCCC(=O)O
property: remaining at 24 h, 50 µM (%)
Give the value, in units of %, as a plain number.

Query string: Param item = CC(=O)NCCC(=O)N[C@@H](CCCCN)C(=O)N[C@@H](CC(C)C)C(=O)N[C@H](C(=O)N[C@@H](C)C(=O)N[C@@H](CC(=O)O)C(=O)N[C@@H](CC(N)=O)C(=O)N[C@@H](Cc1ccc(O)cc1)C(=O)N[C@@H](C)C(=O)N[C@@H](CO)C(=O)N[C@@H](C)C(=O)N[C@@H](CCC(=O)O)C(=O)NCCC(N)=O)C(C)C [KLVAD-NY] (Ac-[βAla]KLVADNYASAE[βAla]-NH2) ; retrieve measured remaining at 24 h, 50 µM.
Result string: 102

###

- System: MMP-14
- Construct: purchased antibodies.com
- measurement notes: Peptide degradation with added exogenous recombinant MMP-14 (LC-MS)
- Type: in vitro ADME
- condition description: human, Figure 7 study; recombinant MMP-14 0.5 nM, 24 h, LC-MS, N = 3 with technical triplicates; read-out: peptide remaining in hMSC conditioned media with added MMP‐14
Where a SMILES comes first, the peptide text is derived from it. [ ]: non-standard residue; d: D form. βAla = NCCC(=O)O
property: remaining at 24 h, 50 µM (%)
Give the value, in units of %, as a plain number.

Query string: Param item = CC[C@H](C)[C@H](NC(=O)CNC(=O)[C@H](CCC(N)=O)NC(=O)[C@@H]1CCCN1C(=O)CNC(=O)CCNC(C)=O)C(=O)N[C@@H](Cc1c[nH]c2ccccc12)C(=O)NCC(=O)N[C@@H](CCC(N)=O)C(=O)NCCC(N)=O [PanMMP, reference compound] (Ac-[βAla]GPQGIWGQ[βAla]-NH2) ; retrieve measured remaining at 24 h, 50 µM.
Result string: 84
